# assayed.target: CYP2B6 (Homo sapiens, UniProt P20813)
# Construct: Using HLM as the enzyme source; from tissue; host or cells: human liver microsomes
# Sequence (P20813 whole entry): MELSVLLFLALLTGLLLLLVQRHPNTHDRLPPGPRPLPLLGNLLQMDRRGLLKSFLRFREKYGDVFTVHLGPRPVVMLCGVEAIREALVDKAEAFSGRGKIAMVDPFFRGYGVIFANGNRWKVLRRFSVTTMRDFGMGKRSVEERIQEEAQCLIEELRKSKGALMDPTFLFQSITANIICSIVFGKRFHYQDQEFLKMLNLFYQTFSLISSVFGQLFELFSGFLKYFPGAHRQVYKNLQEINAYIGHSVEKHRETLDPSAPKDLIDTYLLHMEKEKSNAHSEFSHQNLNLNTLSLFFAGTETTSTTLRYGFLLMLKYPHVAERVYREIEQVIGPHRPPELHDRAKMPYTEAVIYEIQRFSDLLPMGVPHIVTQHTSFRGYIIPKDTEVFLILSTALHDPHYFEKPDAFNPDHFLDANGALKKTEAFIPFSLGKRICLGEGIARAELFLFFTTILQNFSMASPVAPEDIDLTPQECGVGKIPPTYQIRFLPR
# assay.overview: CYP inhibition assay in HLM, single concentration
# Assay type: biochemical
# measurement.context: human liver microsomes, probe Bupropion, n = 3, read-out: % Inhibition (CYP 2B6)
# Source text: The regulatory bodies and pharmaceutical firms are quite concerned about CYP inhibition. Therefore, medicinal chemists often change the lead structure to decrease CYP inhibition. If left uncorrected, it can cause DDIs, enhanced drug concentration, and, thus, toxicity. Using HLM as the enzyme source, the CYP inhibition potential was employed to assess the inhibitory effect of the TbB ligands on the CYP1A2, 2B6, 2C8, 2C9, 2C19, and 2D6 3A4 isoforms. […]
Item-by-item account of inhibition at 20 min, 10 µM
Enter your answer as a number in %; do not include the unit.

// known answers, use as guide
compound.string | parameter.measured | readout.number
Oc1ccc(-c2nnn(-c3ccc(O)cc3)n2)cc1 | inhibition at 20 min, 10 µM | 54
Cc1cc(-c2nnn(-c3cc(C)c(O)c(C)c3)n2)cc(C)c1O | inhibition at 20 min, 10 µM | 80

*Q* Supply inhibition at 20 min, 10 µM value. Item: COc1cc(-c2nnn(-c3cc(OC)c(O)c(OC)c3)n2)cc(OC)c1O
*A* 47
